- assay.remarks: qHTS Assay for inhibitors of the human cytomegalovirus (HCMV); further: on the % scale 0 is the no-effect control and ±100 the full control effect
- condition.info: HFF cells, HCMV-luciferase reporter, 72 h; at 57.5 µM; hits give low values
About 18,000 (4.4%) of roughly 410,000 compounds were called active. Another 7% or so got no clear call; they are omitted. The full list was thinned out, with actives kept by preference.

>  <molecule>
COc1ccc(C(=O)COC(=O)CCCC(=O)Nc2cc(C(F)(F)F)ccc2Cl)cc1

>  <activity change, negative = inhibition>
-1.47% (inactive)

$$$$
>  <molecule>
Cc1ccc(-c2onc(C)c2C)cc1S(=O)(=O)Nc1ccccn1

>  <activity change, negative = inhibition>
52.8% (inactive)

$$$$
>  <molecule>
O=C(O)c1ccc(OCC2CCCO2)cc1 (stereo unspecified)

>  <activity change, negative = inhibition>
63.5% (inactive)

$$$$
>  <molecule>
CNc1ccc(-c2nc(-c3ccco3)no2)cc1[N+](=O)[O-]

>  <activity change, negative = inhibition>
102% (inactive)

$$$$
>  <molecule>
C[C@H]1CN([C@@H](C)CO)C(=O)Cc2cc(NS(C)(=O)=O)ccc2O[C@@H]1CN(C)CC1CC1

>  <activity change, negative = inhibition>
-70.1% (active)

$$$$
>  <molecule>
Cc1ccc(C(=O)Nc2ccc3[nH]c(=O)c(=O)[nH]c3c2)cc1

>  <activity change, negative = inhibition>
-0.693% (inactive)

$$$$

###

- assay.remarks: qHTS Assay for inhibitors of the human cytomegalovirus (HCMV); further: on the % scale 0 is the no-effect control and ±100 the full control effect
- condition.info: HFF cells, HCMV-luciferase reporter, 72 h; at 57.5 µM
In all, about 410,000 compounds went through this assay and about 18,000 (4.4%) were called active. Inconclusive results (about 7%) are left out. No stated cut-off is given here; in the data, active means activity change below about -60%; inconclusive means no clear call, values can overlap the other calls; inactive means above about -39%. This is one part of a sample in which actives are shown more often than they occur.
Outcomes: active, inactive

>  <compound>
CCN(CC)CCNc1ncnc2c1cnn2-c1cc(Cl)ccc1C

>  <assigned.label>
inactive

$$$$
>  <compound>
COc1ccc(S(=O)(=O)N2CCCCC2)cc1NC(=O)COc1ccccc1

>  <assigned.label>
inactive

$$$$
>  <compound>
Cc1ccc(S(=O)(=O)N2CCCCC2)cc1NC(=O)[C@@H]1CCCN1C(=O)c1cccs1

>  <assigned.label>
inactive

$$$$
>  <compound>
COc1ccc(N2CCN(c3nc(-c4ccccc4F)nc4ccccc34)CC2)cc1

>  <assigned.label>
inactive

$$$$
>  <compound>
COC(=O)C1=CN(c2c(C)cc(C)cc2C)C(N)=C(C#N)C1c1cccc(F)c1 (stereo not drawn)

>  <assigned.label>
inactive

$$$$
>  <compound>
Cc1[nH]c2ccccc2c1C(c1ccccc1)c1cccs1 (stereo not drawn)

>  <assigned.label>
inactive

$$$$
>  <compound>
COc1ccc(CCNCc2c(-c3ccccc3)n(C)c3ccccc23)cc1

>  <assigned.label>
inactive

$$$$
>  <compound>
CCOc1ccc(CNCc2c(C(=O)O)c(C)n(Cc3cccc(OC)c3)c2C)cc1OC

>  <assigned.label>
inactive

$$$$
>  <compound>
O=C(CCl)Nc1cccc(CP(=O)(c2ccccc2)c2ccccc2)c1

>  <assigned.label>
active

$$$$
>  <compound>
O=C(Nc1ccc2nc(SCCOc3ccccc3Cl)sc2c1)c1ccco1

>  <assigned.label>
active

$$$$
>  <compound>
CCc1cccc(-n2nnc(-c3nsc(NC(=O)c4ccc(C)cc4)n3)c2C)c1

>  <assigned.label>
inactive

$$$$
>  <compound>
CN1c2ccccc2[C@@]2(CCN=C2N2CCOC2=O)[C@H]1c1cn(C)c2ccccc12

>  <assigned.label>
inactive

$$$$
>  <compound>
COc1ccc(-c2cn3c(C)c(C(=O)Nc4cc(C)cc(C)c4)sc3n2)cc1

>  <assigned.label>
inactive

$$$$
>  <compound>
COc1ccc(S(=O)(=O)c2c(Nc3cccc(Cl)c3)sc(C(=O)c3ccccc3)c2N)cc1

>  <assigned.label>
inactive

$$$$
>  <compound>
Cc1cccc2c1-c1sc(C(=O)Nc3ccc(F)cc3F)cc1CO2

>  <assigned.label>
inactive

$$$$
>  <compound>
O=C(CNCc1ccc(Cl)cc1)Nc1cccc(C(=O)O)c1

>  <assigned.label>
inactive

$$$$
>  <compound>
COc1ccc(-c2c(C#Cc3ccccc3)c3ccccc3n2C)cc1

>  <assigned.label>
active

$$$$
>  <compound>
COc1ccc(Br)cc1C1CC(=O)Nc2c1c(C)nn2-c1nc(C)cc(C)n1 (stereo not drawn)

>  <assigned.label>
inactive

$$$$
>  <compound>
COc1ccc(CCNC(=O)CC2SC(=Nc3cc(C)cc(C)c3)NC2=O)cc1OC (stereo not drawn)

>  <assigned.label>
inactive

$$$$
>  <compound>
Cc1ccc(OCCSc2nc(-c3cccs3)nc3cc(=O)[nH]n23)cc1Cl

>  <assigned.label>
inactive

$$$$
>  <compound>
COc1ccc(N2CC(C(=O)NCCN3C(=O)S/C(=C\c4cccnc4)C3=O)CC2=O)c(OC)c1 (stereo not drawn)

>  <assigned.label>
inactive

$$$$
>  <compound>
COc1ccc(CNC(=O)CNC(=O)c2sc3ccccc3c2Cl)cc1OC

>  <assigned.label>
active

$$$$
>  <compound>
Cc1cccc(OC(C)C(=O)N2CCc3ccccc3C2)c1 (stereo not drawn)

>  <assigned.label>
inactive

$$$$
